System: SF-268
Assay: NCI tumour cell line growth inhibition, 48 h
Activity calls are given as the source filed them. Rule as the data show it: active = GI50 up to about 1.1 µM and inactive = higher.
READOUT: GI50

Any idea what GI50 came out for COC(=O)c1cc2c(nc1C)-c1ccccc1OS2(=O)=O on SF-268?
45.5 µM (inactive)

* * *

Tested on: NCI-H23
Assay: NCI tumour cell line growth inhibition, 48 h
Activity calls are given as the source filed them. Cut-off read from the data, not from the text of the source: active = GI50 up to about 1.1 µM and inactive = higher.
READOUT: GI50

Some solved cases for reference:
Cc1ccc(/N=C2\SC(=NN(C)C)S\C2=N/c2ccc(C)cc2)cc1 : > 100 µM (inactive)
COc1cc(OC)c(/C=C\c2cc(/C=C/c3c(OC)cc(OC)cc3OC)c3ccccc3[n+]2C)c(OC)c1 : 2.76 µM (inactive)
CC(=O)N1c2ccccc2C2=NN(C)C(=N)SC21 (stereo not given) : > 100 µM (inactive)
COc1cccc(CN(C(=O)/C=C\Sc2ccccc2)C(C)(C)C)c1 : > 100 µM (inactive)
CC(C)(C)c1cc(/C=C(\C#N)C2=NCCO2)cc(C(C)(C)C)c1O : 3.44 µM (inactive)
c1ccc(CCN2CCc3[nH]c4ccccc4c3C2)cc1 : 30.5 µM (inactive)

May I ask what GI50 has been recorded for O=S(=O)(CCn1c(Sc2ccccc2)c(Sc2ccccc2)c2ccccc21)c1ccccc1 ?
> 100 µM (inactive)

May I ask what GI50 has been recorded for c1ccc([P+](c2ccccc2)(c2ccccc2)c2ccc([P+](c3ccccc3)(c3ccccc3)c3ccccc3)c3ccccc23)cc1 ?
57.4 µM (inactive)

May I ask what GI50 has been recorded for CC(=O)OC1CCC2(C)C(CCC3C2CC(=O)C2(C)C3CC(N3CC3)C2C(C)=O)C1 (stereo not given) ?
16.7 µM (inactive)

May I ask what GI50 has been recorded for Cc1cccnc1N/C=C1\C(=O)NC(=O)N(C)C1=O ?
49.7 µM (inactive)

* * *

Tested on: SK-OV-3
Assay: NCI tumour cell line growth inhibition, 48 h
Calls of active or inactive are those of the source. No stated cut-off is given here; in the data, active = GI50 up to about 1.1 µM and inactive = higher.
READOUT: GI50

CCOC(=O)C(=O)Nc1ccc(C)c(C)c1 : > 100 µM (inactive)
COc1cccc(CN(C(=O)/C=C\Sc2ccccc2)C(C)(C)C)c1 : > 100 µM (inactive)
CC(NC(=O)OC(C)(C)C)C(=O)NC1CCCC1 (stereo unspecified) : > 100 µM (inactive)
C=C1CC23CCC4C(C)(C(=O)O)CCCC4(C)C2CCC1C3 (stereo unspecified) : 44.5 µM (inactive)
CC(=O)O[C@H]1C#C/C=C\C#CC[C@@H]2C(=O)N[C@@H]12 : 57.8 µM (inactive)

Now take the following compound into account.
Any idea what GI50 came out for O=C1C=CC(CC(=O)c2ccc3ccccc3c2)O1 (stereo unspecified) on SK-OV-3?
68.1 µM (inactive)

* * *

Test system: CCRF-CEM
Assay: NCI tumour cell line growth inhibition, 48 h
Activity calls are given as the source filed them. No stated cut-off is given here; in the data, active = GI50 up to about 1.1 µM and inactive = higher. Peptide text beside a SMILES is read from it. * marks the point of attachment. Boc = CC(C)(C)OC(=O)*; OtBu = CC(C)(C)O*
Write down the outcome that applies. Available outcomes: active, inactive

The following compounds have reported results that may help.
COc1cc(/C=C/C(=O)Oc2ccccc2)ccc1C(=O)O/C=C/c1ccccc1 : inactive
Cc1ccc(Nc2c3c(c(C#N)c4nc5ccccc5n24)CCCC3)cc1 : inactive
CCNc1nnc(-c2ccccc2Nc2ccccc2-c2nnc(NCC)s2)s1 : inactive
COC(=O)C1C(=O)CC2CCCCC21 (stereo not drawn) : inactive
C=CCOCCCCC(C(C)=O)C(=O)OC (stereo not drawn) : inactive

Hey, what did the test say about COc1cccc(/C=C2\S/C(=N/Nc3nc(-c4ccc([N+](=O)[O-])cc4)cs3)NC2=O)c1O ?
inactive

Hey, what did the test say about Cc1c(C)c2c(c(N)c1C#N)C(=O)N(NC(=O)c1ccccc1)C2=O ?
inactive

Hey, what did the test say about CCOc1ncn(-c2ccc(NC(=S)Nc3ncccn3)cc2)n1 ?
inactive

Hey, what did the test say about COc1ccc2cc1Oc1ccc(cc1)CC1c3cc(c(OC)cc3CCN1C)Oc1c3c(cc4c1C(C2)N(C)CC4)OCO3 (stereo not drawn) ?
inactive

Hey, what did the test say about C/C(=N\NC(=O)Nc1ccccc1Cl)c1ccc(O)cc1 ?
inactive

Hey, what did the test say about Cc1ccc(SCC(=O)C2=C(O)CCCC2=O)cc1 ?
inactive

Hey, what did the test say about O=C1C=CC(CC(=O)c2ccc3ccccc3c2)O1 (stereo not drawn) ?
inactive

Hey, what did the test say about COc1c(C)c(O)c2c(=O)cc(-c3ccccc3)oc2c1C ?
inactive

Hey, what did the test say about CC(C)(C)OC(=O)CC(NC(=O)OC(C)(C)C)C(=O)NC(Cc1ccccc1)C(N)=O (stereo not drawn) (Boc-Asp(OtBu)-Phe-NH2; configuration not given here) ?
inactive

Hey, what did the test say about CC(=O)Nc1ccc2c(c1)C(=O)c1cccc(F)c1-2 ?
inactive

Hey, what did the test say about O=C1c2cccc3c(Cl)ccc(c23)C(=O)N1CCCN1CCN(CCCN2C(=O)c3cccc4c(Cl)ccc(c34)C2=O)CC1 ?
inactive

Hey, what did the test say about CC1=C2C(O)C(C(C)C(=O)N(C)C)CCC2(C)C=CC1=O (stereo not drawn) ?
inactive

Hey, what did the test say about Cc1ccc(S(=O)(=O)CC(=O)CC(=O)C(=O)Nc2cccc(C(F)(F)F)c2)cc1 ?
inactive

Hey, what did the test say about NCCCCCCNCc1cccc2ccccc12 ?
inactive

Hey, what did the test say about O=C(O)c1cc2ccccc2c(/N=N/c2ccc(S(=O)(=O)O)cc2)c1O ?
inactive

Hey, what did the test say about COC1CC(N)C(O)C(C)O1 (stereo not drawn) ?
inactive

Hey, what did the test say about CC(=O)O[C@H]1CSC[C@@H](OC(C)=O)C1[N+](=O)[O-] (stereo partly drawn) ?
inactive

Hey, what did the test say about Cc1cnc2nc(-c3cccc4ccccc34)cc(O)c2c1 ?
active

Hey, what did the test say about O=C1OC2(c3ccccc3Oc3ccccc32)c2ccccc21 ?
inactive

Hey, what did the test say about OCC1CCCC1O (stereo not drawn) ?
inactive

Hey, what did the test say about COc1ccc(NC(C)=O)cc1N1C(=O)/C(=C\c2cc(OC)c(OC)c(OC)c2)SC1c1ccccc1 (stereo not drawn) ?
inactive

Hey, what did the test say about COc1ccc2c(c1)-c1c(c3ccccc3n1CCN1CCOCC1)CC2 ?
inactive

Hey, what did the test say about CC(C)N(C(=O)c1ccc(NCc2cc(O)ccc2O)cc1)C(C)C ?
inactive

Hey, what did the test say about COC1C(CO)OC(n2c3c(Cl)cccc3c3c4c(c5c6cccc(Cl)c6[nH]c5c32)C(=O)NC4=O)C(O)C1O (stereo not drawn) ?
active

Hey, what did the test say about Cc1ccc(NC(=O)C2C3C=CC(O3)C2C(=O)O)cc1 (stereo not drawn) ?
inactive

* * *

The following compounds are shown together with reported GI50 values.
Tested on: SK-MEL-5
Test: NCI tumour cell line growth inhibition, 48 h
Calls of active or inactive are those of the source. No stated cut-off is given here; in the data, active = GI50 up to about 1.1 µM and inactive = higher.

O=c1[nH]cnc(NC2C=C(CO)C(O)C2O)c1[N+](=O)[O-] (stereo not given) : > 100 µM (inactive)
C[n+]1c(-c2ccc(/C=N\Nc3ccnc(N/N=C/c4ccc(-c5cn6ccsc6[n+]5C)cc4)n3)cc2)cn2ccsc21 : 10.6 µM (inactive)
O=C(O)C1CCCCC1C(=O)Nc1nc2ccccc2[nH]1 (stereo not given) : > 100 µM (inactive)
CSc1ccc(-c2cc(-c3nc4ccccc4[nH]3)nc(N)c2C#N)cc1 : 13.3 µM (inactive)

Now take the following compound into account.
Any idea what GI50 came out for O=C1c2cccc3cc([N+](=O)[O-])cc(c23)C(=O)N1NC1=NCCN1 on SK-MEL-5?
> 100 µM (inactive)

* * *

Tested on: MCF7
Assay: NCI tumour cell line growth inhibition, 48 h
Active and inactive are the calls of the source. Cut-off read from the data, not from the text of the source: active = GI50 up to about 1.1 µM and inactive = higher.
Write down the outcome that applies. Available outcomes: True (active), False (inactive)

The following compounds have reported results that may help.
Cc1nn(C(=O)c2ccccc2O)c2c1C(c1ccc3ccccc3c1O)SC(=N)N2 (stereo not given) : False
COC(=O)[C@]1(c2cc3ccccc3[nH]2)CC2CN(C(=O)OCc3ccccc3)C1CC2=O (stereo not given in full) : False
C/C=C(\C)C(=O)OC1CC(OC(C)=O)C2(C(=O)OC)COC3C2C1(C)C1C2(C(=O)OC)OCC1(C3O)C1(O)C3CC(C4(O)C=COC4O3)C1(C)O2 (stereo not given) : False
O=P(O)(O)C(N=C(Nc1ccccc1)Nc1ccccc1)P(=O)(O)O : False
CCc1c(-c2ccc(OC)cc2)oc(OC)c(C)c1=O : False

Hey, what did the test say about COC1(OC)CCCCCCCCC(OC)(OC)CCCCCCCC1 ?
False

Hey, what did the test say about O=C(O)C1CCCCC1C(=O)Nc1nc2ccccc2[nH]1 (stereo not given) ?
False

Hey, what did the test say about COc1cc(C23OCC(Cc4cc5c(cc42)OCO5)C3CO)cc(OC)c1OC (stereo not given) ?
True

Hey, what did the test say about COc1ccc(NC(C)=O)cc1N1C(=O)/C(=C\c2cc(OC)c(OC)c(OC)c2)SC1c1ccccc1 (stereo not given) ?
False

Hey, what did the test say about Cc1ccc(S(=O)(=O)NC(=O)Nc2cccc(S(N)(=O)=O)c2)cc1 ?
False

Hey, what did the test say about Nc1nc(Cl)c(N)c(NCC2(CO)CC2)n1 ?
False

Hey, what did the test say about CC(C)(C)[Si](C)(C)Oc1cc(CO)cc2c1cc(=N)o[n+]2[O-] ?
False

Hey, what did the test say about COc1ccc2c(c1)-c1c(c3ccccc3n1CCN1CCOCC1)CC2 ?
False

Hey, what did the test say about CN(C)C(=S)Oc1ccc2ccc(=O)oc2c1 ?
False

Hey, what did the test say about O=[N+]([O-])c1ccc(-c2csc3nc(-c4ccccc4)nn23)cc1 ?
False

Hey, what did the test say about COc1ccccc1/C=C1\CCC(Cc2ccccc2)(CN(C)C)C1=O (stereo not given) ?
True

These measurements were taken from ChEMBL document CHEMBL1201862.
